From: ChEMBL document CHEMBL5230110

- PROTOCOL NOTES: Cytotoxicity against African green monkey Vero cells assessed as reduction in cell viability measured after 72 hrs by coulter counter method
- Format: toxicity, cell-based
- APPLIED CONDITIONS: chlorocebus sabaeus
MEASUREMENT KIND: CC50 at 72 h (µM)
Number only, in µM; omit the unit.

CC50 at 72 h reported for this compound C[C@@H](Oc1cc(-c2cnn(C3CCNCC3)c2)cnc1N)c1c(Cl)ccc(F)c1Cl : 4.23

* * *

Overview of recorded pIC50 for various compounds
- PROTOCOL NOTES: Inhibition of Bacillus anthracis enoyl ACP reductase assessed as inhibition of bacterial growth
API: returns pIC50 as number; meaning -log10 of concentration in mol/L.

O=[N+]([O-])c1ccc(Oc2ccc(Cl)cc2O)c(Cl)c1; 6.52

Let us move to another entry and its pIC50.
pIC50 reported for this compound CCCc1ccc(Oc2ccc([N+](=O)[O-])cc2Cl)c(O)c1 : 6.30
